This collection of values is drawn from BindingDB's records for doi:10.1016/S0960-894X(01)80270-5.

- measurement_target: Neutrophil elastase (Homo sapiens, UniProt P08246)
- Sequence (P08246 whole entry): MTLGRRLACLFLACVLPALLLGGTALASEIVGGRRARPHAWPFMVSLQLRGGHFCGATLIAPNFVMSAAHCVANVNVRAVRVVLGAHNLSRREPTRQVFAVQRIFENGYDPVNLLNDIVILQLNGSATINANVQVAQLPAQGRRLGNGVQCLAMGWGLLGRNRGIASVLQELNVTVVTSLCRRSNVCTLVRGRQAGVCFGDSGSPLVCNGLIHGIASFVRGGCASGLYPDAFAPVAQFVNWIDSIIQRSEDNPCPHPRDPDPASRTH
- experiment_notes: ChEBML_86533
pIC50: −log10 of the molar value.
Quick list: pIC50 per entry.

A selection of reference data follows.
record_smiles=COCCn1c2ccc(OC)cc2c2c(O)oc(=O)nc21 value_type=pIC50 meas_value="< 3.00"
record_smiles=CCCCn1c(C)c(C)c2c(O)oc(=O)nc21 value_type=pIC50 meas_value="< 3.00"
record_smiles=COc1ccc2c(c1)c1c(O)oc(=O)nc1n2Cc1ccccn1 value_type=pIC50 meas_value="< 3.00"
record_smiles=COc1ccc2c(c1)c1c(O)oc(=O)nc1n2C1CCCCC1 value_type=pIC50 meas_value="< 3.00"
record_smiles=COc1ccc2c(c1)c1c(O)oc(=O)nc1n2CC(OC)OC value_type=pIC50 meas_value="< 3.00"
record_smiles=Cc1c(C)n(C2CCCCC2)c2nc(=O)oc(O)c12 value_type=pIC50 meas_value="< 3.00"

Consider the additional molecule presented here.
Lookup: I am curious: what pIC50 value has been reported for "COCCn1c2ccc(OC(C)=O)cc2c2c(O)oc(=O)nc21" ?
Found: < 3.00
